Source: patent US6204293A

- TARGET_OF_ASSAY: Rat brain protein farnesyltransferase (Rattus norvegicus, UniProt Q02293+Q04631)
- Construct: Rat brain protein farnesyltransferase activity is measured; from tissue; host or cells: rat brain
- Sequence (Q02293 whole entry, one chain of several): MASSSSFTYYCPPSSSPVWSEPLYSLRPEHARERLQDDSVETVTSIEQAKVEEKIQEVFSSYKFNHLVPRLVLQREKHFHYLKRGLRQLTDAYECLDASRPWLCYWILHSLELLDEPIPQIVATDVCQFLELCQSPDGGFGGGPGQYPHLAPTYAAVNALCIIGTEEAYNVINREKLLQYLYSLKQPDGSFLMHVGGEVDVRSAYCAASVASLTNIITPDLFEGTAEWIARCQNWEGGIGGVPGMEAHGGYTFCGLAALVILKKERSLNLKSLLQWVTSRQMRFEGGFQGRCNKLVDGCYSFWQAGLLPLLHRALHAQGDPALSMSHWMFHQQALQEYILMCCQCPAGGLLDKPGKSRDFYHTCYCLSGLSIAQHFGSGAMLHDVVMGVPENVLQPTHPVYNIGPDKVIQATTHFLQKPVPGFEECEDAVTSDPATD
- TEST_DETAILS: % inhibition of farnesylation, scintillation proximity assay with biotin-K Ras B fragment
- Assay type: biochemical
- ASSAY_SETUP: read-out: % inhibition at 1 × 10^-7 M
Where a name gives a salt, the structure may show the parent alone.
Use 90% as the dividing line for inhibition at 0.1 µM, with the line itself on the class 1 side and lower values as class 0.

[in] Exam item: decide whether the reported inhibition at 0.1 µM for COc1ccc(COCc2ccc(C(=O)N[C@@H](CCSC)C(=O)O)c(-c3ccccc3C)c2)cc1 [Example 935, lithium salt] is at least 90%.
[out] class 0

[in] Now give it for CSCC[C@H](NC(=O)c1ccc(COCc2cnco2)cc1-c1ccccc1C)C(=O)O [Example 891, lithium salt] too.
[out] class 1

[in] Now give it for CSCC[C@H](NC(=O)c1ccc(COc2ccc(Oc3ccccc3)cc2)cc1-c1ccccc1C)C(=O)O [Example 795, lithium salt] too.
[out] class 0

[in] Now give it for CSCC[C@H](NC(=O)c1ccc(COCCc2cccc3ccccc23)cc1-c1ccccc1C)C(=O)O [Example 592, lithium salt] too.
[out] class 1

[in] Now give it for CSCC[C@H](NC(=O)c1ccc(COCc2ccc(Br)o2)cc1-c1ccccc1C)C(=O)O [Example 434, lithium salt] too.
[out] class 1
